Assay: Toxicity liver stage against HepG2, at 10uM
Type: cell-based
Design: test concentration 10 uM, cell line HepG2-A16-CD81EGFP
Details: human, HepG2-A16-CD81EGFP cells; read-out: INHIBITION
cytotoxicity at 10 µM values by entry

molecule: CCOCCNC(=O)Nc1ccc(OCc2noc(C3CC3)n2)cc1
cytotoxicity at 10 µM: 6.48%
//
molecule: CC1CC(=O)c2cnc3nc(N4CCOCC4)[nH]c(=O)c3c2C1 (stereo unspecified)
cytotoxicity at 10 µM: 5.31%
//
molecule: Cc1noc(C2CCCN(Cn3cc(Br)cn3)C2)n1 (stereo unspecified)
cytotoxicity at 10 µM: -3.67%
//
molecule: O=C(O)c1c(-c2cccnc2)ncc2c1CCN(CC1CCOC1)C2 (stereo unspecified)
cytotoxicity at 10 µM: -2.55%
//
molecule: CCn1c(CN2CCCC2)nnc1C1CCN(Cc2ccccn2)CC1
cytotoxicity at 10 µM: 3.11%
//
molecule: CC(C)c1csc(NC(=O)NC2CCCN(c3cnn(C)c3)C2)n1 (stereo unspecified)
cytotoxicity at 10 µM: 15%
//
molecule: COc1c(C)cnc(CN2CCCC2c2noc(C3CC3)n2)c1C (stereo unspecified)
cytotoxicity at 10 µM: -0.0422%
//
molecule: Cc1ccc(C2CN(Cc3cnc(-c4cccnc4)s3)CCO2)o1 (stereo unspecified)
cytotoxicity at 10 µM: -10.9%
//
molecule: Cn1c(C(=O)N(CC(N)=O)C2CCCC2)cc(Cl)c1Cl
cytotoxicity at 10 µM: 9.31%
//
molecule: O=S(=O)(C1CC1)N1Cc2nccn2CC(Cn2cncn2)C1 (stereo unspecified)
cytotoxicity at 10 µM: 1.02%
//
molecule: CCc1cccc(CC)c1NC(=O)c1ccccc1N(C)S(C)(=O)=O
cytotoxicity at 10 µM: 11.4%
//
molecule: Cc1cnc(CN(C)C2CCN(Cc3nc4ccccc4s3)C2)o1 (stereo unspecified)
cytotoxicity at 10 µM: -7.97%
//
molecule: CCCS(=O)(=O)N1CCC2(CCC(=O)N(Cc3ccccc3)C2)CC1
cytotoxicity at 10 µM: 11.2%
//
molecule: CC(C)Oc1ccc(CN2CCCC(N3CCCC3)C2)cc1CO (stereo unspecified)
cytotoxicity at 10 µM: 0.271%
//
molecule: Cn1cnnc1C1CCN(C(=O)c2cc3c(s2)CCC3)CC1
cytotoxicity at 10 µM: -10%
//
molecule: CCN(CC1CCCO1)C(=O)Nc1cc(OC)c(OC)cc1C (stereo unspecified)
cytotoxicity at 10 µM: -10.9%

* * *

Test: Toxicity liver stage against HepG2, at 10uM
Type: cell-based
Set-up: test concentration 10 uM, cell line HepG2-A16-CD81EGFP
Conditions: human, HepG2-A16-CD81EGFP cells; read-out: INHIBITION

molecule: Cc1nn(C)c(C)c1CN(Cc1cccn1-c1ccccn1)C(C)C
cytotoxicity at 10 µM, %: 0.936
//
molecule: CCn1c(C2CCNCC2)nn(CCn2ccc(C)n2)c1=O
cytotoxicity at 10 µM, %: 2.6
//
molecule: Cc1ccc(CCCC(=O)N2CCN(C3CCCN(C)C3)CC2)s1 (configuration not stated)
cytotoxicity at 10 µM, %: 5.82
//
molecule: COCCNC(=O)[C@@]12CCO[C@@H]1CCN(Cc1ccc(OC)cc1)C2
cytotoxicity at 10 µM, %: -77.8
//
molecule: Cc1cccc(NC(=O)C(C)Oc2ccc3c(c2)OCO3)n1 (configuration not stated)
cytotoxicity at 10 µM, %: -9.25
//
molecule: COc1ccc(C(=O)N2CCCC(n3cc(C)cn3)C2)c(F)c1 (configuration not stated)
cytotoxicity at 10 µM, %: -10.2
//
molecule: CN(Cc1nccn1CC(F)(F)F)C(=O)c1ccc(F)cc1F
cytotoxicity at 10 µM, %: 3.3
//
molecule: CC(=O)N1CCC[C@@H](NCc2cccc(F)c2)[C@@H]1c1ccc(C)s1
cytotoxicity at 10 µM, %: -24.2
//
molecule: COc1ccc(NC(C)c2ccc(C#N)cc2)cc1N1CCCC1=O (configuration not stated)
cytotoxicity at 10 µM, %: -7.43
//
molecule: Cc1cc(CN(C)C(=O)NCC(C)N2CCc3ccccc32)no1 (configuration not stated)
cytotoxicity at 10 µM, %: -5.43
//
molecule: CCOc1ccc(CN2C(=O)CC(C)(C(C)C)C2=O)nc1 (configuration not stated)
cytotoxicity at 10 µM, %: -5.51
//
molecule: Cc1cc(C)c(CNC(=O)NCCC2CCCO2)c(=O)[nH]1 (configuration not stated)
cytotoxicity at 10 µM, %: -6.33
//
molecule: COCCC(=O)N1CCC2(CCN(Cc3cccc(F)c3)C2)C1 (configuration not stated)
cytotoxicity at 10 µM, %: -60.2
//
molecule: Cc1n[nH]c(C)c1NC(=O)CN1CCc2c(nc(C3CC3)n2C)C1
cytotoxicity at 10 µM, %: -3.15
//
molecule: Cc1ccc(-c2nnc(CN3CCc4nn(C)c(=O)cc4C3)o2)cc1
cytotoxicity at 10 µM, %: -23.4
//
molecule: CC(=O)N1CCO[C@@H]2CN(S(=O)(=O)c3ccc(F)cc3)CC[C@@H]2C1
cytotoxicity at 10 µM, %: 13.7
//
molecule: CN(C)S(=O)(=O)N1C[C@H]2CCC[C@@]2(COCC2CC2)C1
cytotoxicity at 10 µM, %: 6.13
//
molecule: O=C([C@@H]1CC[C@@H]2[C@@H](CCN2CCOCc2ccccc2)O1)N1CCCC1
cytotoxicity at 10 µM, %: -110
//
molecule: CCOCC(=O)N1CC[C@H]2OCC[C@@]2(COc2ncccc2F)C1
cytotoxicity at 10 µM, %: -152
//
molecule: CC(C)c1nc(CN(C)C(=O)c2cn3ccsc3n2)cs1
cytotoxicity at 10 µM, %: 8.35
//
molecule: Cc1ccccc1-c1ncc(CNCc2csc(C(C)C)n2)s1
cytotoxicity at 10 µM, %: 0.264
//
molecule: O=C(c1ncn2c1CNS(=O)(=O)c1ccccc1-2)N1CC=CC1
cytotoxicity at 10 µM, %: 10.5
//
molecule: O=C(NCc1ccco1)[C@H]1CC[C@@H]2[C@@H](CCN2c2ncc(F)cn2)O1
cytotoxicity at 10 µM, %: -78.4
//
molecule: O=C(NCC(Cc1cccc(F)c1)N1CCCC1=O)c1ccccc1 (configuration not stated)
cytotoxicity at 10 µM, %: -12.2
//
molecule: CCCNC(=O)C(C)Oc1ccccc1 (configuration not stated)
cytotoxicity at 10 µM, %: -6.68
//
molecule: O=C(NCCC(=O)N1CCCC1)c1ccc(SCc2cccnc2)cc1
cytotoxicity at 10 µM, %: 8.95
//
molecule: COCCCN1CCCC12CCN(c1ncccn1)CC2
cytotoxicity at 10 µM, %: 2.87
//
molecule: CC(=O)N1CCOCC(Cc2ccc3c(ccn3C(C)=O)c2)C1 (configuration not stated)
cytotoxicity at 10 µM, %: 1.64
//
molecule: CCNc1c(NC(=O)C2CC2)c(=O)oc2ccccc12
cytotoxicity at 10 µM, %: -5.99
//
molecule: O=c1[nH]nc2c(N3CCC(NC4CCOCC4)CC3)nccn12
cytotoxicity at 10 µM, %: 7.19
//
molecule: CSCC(C)(O)CNc1cccc(F)c1C#N (configuration not stated)
cytotoxicity at 10 µM, %: 0.462
//
molecule: COCCn1cc(NCc2c[nH]nc2C(C)(C)C)cn1
cytotoxicity at 10 µM, %: -2.35
//
molecule: O=C1COC[C@H]([C@H](O)c2ccc(NC(=O)c3cccnc3)cc2)N1
cytotoxicity at 10 µM, %: 0.317
//
molecule: COc1ncccc1CNC(=O)NC1CCOc2ccccc21 (configuration not stated)
cytotoxicity at 10 µM, %: -7
//
molecule: CC(C)[C@@H]1CN(C(=O)CN(C)Cc2ccc(F)cc2)C[C@H]1C(=O)O
cytotoxicity at 10 µM, %: 1.74
//
molecule: O=C(OCc1ccccc1)N1CC[C@H]2CC(CO)O[C@@H]2C1 (some centres not stated)
cytotoxicity at 10 µM, %: -97.7
//
molecule: COc1ccc(CN2CCc3nnc(COCCN(C)C)n3CC2)cc1
cytotoxicity at 10 µM, %: 4.5
//
molecule: Fc1ccc2c(C3=CCN(Cc4nnc(C5CCC5)o4)CC3)c[nH]c2c1
cytotoxicity at 10 µM, %: -0.302
//
molecule: CC(=O)c1c(C)cc(C)c(Cn2ccnc2S(C)(=O)=O)c1C
cytotoxicity at 10 µM, %: -0.657
//
molecule: O=C(CC1CCN(c2cccnn2)CC1)NC1CCOCC1
cytotoxicity at 10 µM, %: 0.671
//
molecule: CC(C)c1nn2c(-c3cnn(C)c3)nnc2s1
cytotoxicity at 10 µM, %: -8.75
//
molecule: COCC(=O)N1CCC2(C1)c1ccccc1S(=O)(=O)N2CC1CC1 (configuration not stated)
cytotoxicity at 10 µM, %: 4.39

* * *

Quick reference: cytotoxicity at 10 µM of the listed items.
Test: Toxicity liver stage against HepG2, at 10uM
Format: cell-based
Design: test concentration 10 uM, cell line HepG2-A16-CD81EGFP
Conditions: human, HepG2-A16-CD81EGFP cells; read-out: INHIBITION

compound: CC(=O)c1cc(CN2C[C@@H]3CC[C@H]2CN(S(C)(=O)=O)C3)cs1
unit: %
cytotoxicity at 10 µM: 8.35

compound: O=C(Cc1ccccn1)N1CCc2ncnc(NC3CCC3)c2CC1
unit: %
cytotoxicity at 10 µM: 3.25

compound: CCC[C@@H]1CN(Cc2c[nH]nc2-c2ccc(F)cc2)C[C@H]1NS(C)(=O)=O
unit: %
cytotoxicity at 10 µM: 3.25

compound: CCn1nc2c(cc1=O)CN(CC(=O)N(C)c1nccs1)CC2
unit: %
cytotoxicity at 10 µM: -4.58

compound: NC(=O)c1cnn2c1NCC(CNCCCOc1ccccc1F)C2 (configuration not stated)
unit: %
cytotoxicity at 10 µM: -5.56

compound: CCn1nc(-c2ccccc2F)ccc1=O
unit: %
cytotoxicity at 10 µM: 12.9

compound: O=C(Cc1ccc(F)cc1)NS(=O)(=O)c1ccc(F)c(F)c1
unit: %
cytotoxicity at 10 µM: -9.07

compound: CCn1c(C)nnc1SCCNc1nc(C)nc2c1cnn2C
unit: %
cytotoxicity at 10 µM: 7.9

compound: COCC(=O)N1CCC2(CC1)CCN(Cc1ccccn1)C2=O
unit: %
cytotoxicity at 10 µM: 1.62

compound: CCC(Nc1cccc(Oc2ccccn2)c1)C(N)=O (configuration not stated)
unit: %
cytotoxicity at 10 µM: 9.55

compound: CCNc1ncc(C(=O)NCC2OCCc3ccccc32)cn1 (configuration not stated)
unit: %
cytotoxicity at 10 µM: -53.1

compound: COC(=O)N1CCCC(NC(=O)NCc2nc(C)cs2)C1 (configuration not stated)
unit: %
cytotoxicity at 10 µM: 7.25

Data provenance: ChEMBL document CHEMBL4513216
